What MBC was measured for each of the following?
Tested on: Staphylococcus aureus
test.name: Antimicrobial activity against Methicillin-resistant Staphylococcus aureus ATCC 33599 assessed as bacterial growth inhibition
Type: functional
Write the figure, then the unit, nothing else.

MBC in this record for CN[C@H](CC(C)C)C(=O)N[C@H]1C(=O)N[C@@H](CC(N)=O)C(=O)N[C@H]2C(=O)N[C@H]3C(=O)N[C@H](C(=O)N[C@H](C(=O)O)c4cc(O)cc(O)c4-c4cc3ccc4O)[C@H](O)c3ccc(c(Cl)c3)Oc3cc2cc(c3O[C@@H]2O[C@H](CO)[C@@H](O)[C@H](O)[C@H]2O[C@H]2C[C@](C)(N)[C@H](O)[C@H](C)O2)Oc2ccc(cc2Cl)[C@H]1O : 6.25 µg/mL

MBC in this record for O=C(O)c1ccc(-n2cc(/C=N/c3ccc(Cl)cc3Cl)c(-c3ccc4ccccc4c3)n2)cc1 : 6.25 µg/mL

MBC in this record for O=C(O)c1ccc(-n2cc(/C=N/c3cccc(Cl)c3F)c(-c3ccc4ccccc4c3)n2)cc1 : 12.5 µg/mL

MBC in this record for O=C(O)c1ccc(-n2cc(/C=N/c3ccc(C(F)(F)F)cc3)c(-c3ccc4ccccc4c3)n2)cc1 : 25 µg/mL
